From: patent EP0938471B1

Biological target: MMP-13 (Homo sapiens)
Test: MMP-13 inhibition (thiopeptide or fluorescent peptide substrate assay)
Assay type: biochemical
Details: read-out: MMP-13 IC50
pIC50: −log10 of the molar value. Counter-ions that a name gives are not always drawn.
REPORTED METRIC: pIC50

Below, each entry is followed by its recorded pIC50 result.
• COc1ccc(S(=O)(=O)N(Cc2cccnc2)c2c(Br)cc(C)cc2C(=O)NO)cc1 = 7.24
• COc1ccc(S(=O)(=O)N(Cc2cccnc2)c2c(C)cc(-c3ccc4c(c3)OCO4)cc2C(=O)NO)cc1 [Example 405, hydrochloride salt] = 8.24

[I] CCCCOc1ccc(S(=O)(=O)N(Cc2ccccc2)c2c(C)cc(C)cc2C(=O)NO)cc1
[II] COc1ccc(S(=O)(=O)N(Cc2ccccc2)c2c(CN3CCN(C)CC3)cccc2C(=O)NO)cc1
[III] COc1ccc(S(=O)(=O)N(Cc2cccnc2)c2c(C)cc(-c3cc(-c4ccc(C)o4)no3)cc2C(=O)NO)cc1
[IV] C#Cc1ccc(S(=O)(=O)N(Cc2cccnc2)c2c(C)cccc2C(=O)NO)cc1
Data request: Put the items in order so that reported pIC50 rises from first to last. Provide your answer as the labels ordered per the instruction.
Data returned: I, IV, II, III
(I: 6.86, IV: 7.12, II: 7.64, III: 8.06)
